- experimentalTarget: human IL-4Rα on cells (human, UniProt P24394 26-825)
- assayProcedure: cell-based or functional assay
quantity: IC50(pM), hIL-13 Blocking Activity, TF-1 proliferation inhibition assay
Please respond with the number in pM and leave the unit unwritten.

The binder identified as Dupilumab (antibody, V domains shown) VH: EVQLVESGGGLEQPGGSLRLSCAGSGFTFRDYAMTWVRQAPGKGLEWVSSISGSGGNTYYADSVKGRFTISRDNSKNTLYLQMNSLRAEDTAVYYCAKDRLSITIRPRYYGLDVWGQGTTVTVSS VL: DIVMTQSPLSLPVTPGEPASISCRSSQSLLYSIGYNYLDWYLQKSGQSPQLLIYLGSNRASGVPDRFSGSGSGTDFTLKISRVEAEDVGFYYCMQALQTPYTFGQGTKLEIKR registered its IC50(pM), hIL-13 Blocking Activity, TF-1 proliferation inhibition assay at 140
